System: Streptococcus pyogenes C203
TEST_PROTOCOL: MIC, standard agar-dilution assay, Streptococcus pyogenes C203
Assay type: cell-based
SETUP_CONDITIONS: Streptococcus pyogenes, C203
Here the recorded MIC is given for each entry.

| MOLECULE | MIC [µg/mL] |
| --- | --- |
| CCC1OC(=O)CC(O)C(C)C(OC2OC(C)C(OC3CC(C)(O)C(O)C(C)O3)C(N(C)C)C2O)C(CCSc2ccccc2)CC(C)C(=O)C=CC(C)=CC1COC1OC(C)C(O)C(OC)C1OC (stereo not drawn) | 4 |
| CCC1OC(=O)CC(O)C(C)C(OC2OC(C)C(OC3CC(C)(O)C(O)C(C)O3)C(N(C)C)C2O)C(CCOC(=O)COc2ccccc2)CC(C)C(=O)C=CC(C)=CC1COC1OC(C)C(O)C(OC)C1OC (stereo not drawn) | 0.5 |
| CCC1OC(=O)CC(O)C(C)C(OC2OC(C)C(O)C(N(C)C)C2O)C(CCSc2ccccc2)CC(C)C(=O)C=CC(C)=CC1COC1OC(C)C(O)C(OC)C1OC (stereo not drawn) | 0.25 |
| CCC1OC(=O)CC(O)C(C)C(OC2OC(C)C(O)C(N(C)C)C2O)C(CC2SCCN2Cc2ccccc2)CC(C)C(=O)C=CC(C)=CC1COC1OC(C)C(O)C(OC)C1OC (stereo not drawn) | 0.25 |
| CCC1OC(=O)CC(O)C(C)C(OC2OC(C)C(OC3CC(C)(O)C(O)C(C)O3)C(N(C)C)C2O)C(CCOC(=O)c2nn(CC)c3cc4c(cc3c2=O)OCO4)CC(C)C(=O)C=CC(C)=CC1COC1OC(C)C(O)C(OC)C1OC (stereo not drawn) | 1 |
| CCC1OC(=O)CC(O)C(C)C(OC2OC(C)C(O)C(N(C)C)C2O)C(CCOc2ccc([N+](=O)[O-])cc2)CC(C)C(=O)C=CC(C)=CC1COC1OC(C)C(O)C(OC)C1OC (stereo not drawn) | 1 |
